MEASUREMENT DESCRIPTION: FIG. 14
EXPERIMENTAL SETUP: C57BL/6, mouse, in vivo, ip, 2 mg/kg
ENDPOINT: MRT (h)

sample_smiles=C=C[C@H](C)C[C@@H]1NC(=O)[C@H]([C@H](O)C(C)C)N(C)C(=O)[C@H](C)N(C)C(=O)[C@@H]([C@@H](C)CC)NC(=O)[C@@H]([C@H](O)C(C)C)NC(=O)[C@H]2CCCCN2C(=O)[C@H](C)N(C)C1=O measured_result=8.63

###

MEASUREMENT DESCRIPTION: FIG. 14
EXPERIMENTAL SETUP: C57BL/6, mouse, in vivo, iv, 2 mg/kg
ENDPOINT: half-life (min)

molecule="C=C[C@H](C)C[C@@H]1NC(=O)[C@H]([C@H](O)C(C)C)N(C)C(=O)[C@H](C)N(C)C(=O)[C@@H]([C@@H](C)CC)NC(=O)[C@@H]([C@H](O)C(C)C)NC(=O)[C@H]2CCCCN2C(=O)[C@H](C)N(C)C1=O [SRA3]" endpoint=half-life unit_string=min measured_result=407

Just for reference, patent US20230135758A1 is where these values come from.
